B1: CDC25A (parent)
chain: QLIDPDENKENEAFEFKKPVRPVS

# Variants of: B1
# protocol: protein stability index of a GFP-peptide fusion (GPS, HEK-293T) (PSI 1-6); higher = more stable;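 further: lentivirally expressed fusions sorted by FACS into six bins by GFP to DsRed ratio, PSI derived from sequencing read proportions per bin multiplied by bin number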
# protocol_conditions: c terminus: a fixed tail appended
Quick list: protein stability index per entry.

monomer_sequence	measured_attribute	reading
QLIDPDENKENEAFEFKKPVRPFS	protein stability index	3.89
QLIDPDENKENEAFEFKKTVRPVS	protein stability index	4.09

Query: protein stability index; subject: QLIDPDENKENEAFEFKKPVRPGS
4.05

Query: protein stability index; subject: QLIDPDENKENEAFEFKKPARPVS
4.09
